- System: SW-620 colon
- assayDetails: NCI-60 one-dose screen, 48 h
- assayContext: 10 µM unless noted
This is part of a sample that, as a whole, favours compounds with a hit. Of some 83,000 tested, about 20% had one in any assay. The source made the active and inactive calls. How the source made its calls: active means growth percent below 10; inactive means the rest.
Possible outcomes: active, inactive

- smilesData: "COc1ccc(-c2nc(SCCC(C)C)nc(N/N=C\\c3ccc(O)cc3)c2C#N)cc1"
  classification: "inactive"
- smilesData: "Oc1ccccc1/C=N/Nc1nc(N/N=C/c2ccccc2O)nc(N2CCOCC2)n1"
  classification: "inactive"
- smilesData: "Oc1ccc(CSc2nnc(-c3ccc(Oc4ccccc4)cc3)n2-c2ccccc2)c2cccnc12"
  classification: "inactive"
- smilesData: "CCCCCCNC(=O)Oc1ccc(/C(=C(\\C)c2ccc(OC)cc2)c2ccc(OCCN(C)C)cc2)cc1"
  classification: "inactive"
- smilesData: "O=C1c2cc(Br)ccc2-n2c1nc1cc(Br)ccc1c2=O"
  classification: "inactive"
- smilesData: "c1cncc(-c2cn3nc(-c4c[nH]c5ccccc45)sc3n2)c1"
  classification: "inactive"
- smilesData: "COc1ccc(NC(=O)[C@H](C)N)cc1C(=O)Nc1cccc(-c2cc(=O)c3c(OC)c(OC)c(OC)cc3o2)c1"
  classification: "inactive"
- smilesData: "COc1cc(O)c2c(c1)/C=C/C[C@H](O)[C@H](O)C(=O)/C=C\\C[C@H](C)OC2=O"
  classification: "active"
- smilesData: "O=C1/C(=C/c2ccccc2[N+](=O)[O-])Oc2ccc(O)cc21"
  classification: "active"

The reported measurements were obtained from PubChem BioAssay (NCI).
